assay: self-splicing fitness, log relative to wild type (ln ratio); higher = more splicing; Tetrahymena group I intron in knt gene, E. coli kanamycin selection, DiMSum; sequences stand for … in CUCUCU…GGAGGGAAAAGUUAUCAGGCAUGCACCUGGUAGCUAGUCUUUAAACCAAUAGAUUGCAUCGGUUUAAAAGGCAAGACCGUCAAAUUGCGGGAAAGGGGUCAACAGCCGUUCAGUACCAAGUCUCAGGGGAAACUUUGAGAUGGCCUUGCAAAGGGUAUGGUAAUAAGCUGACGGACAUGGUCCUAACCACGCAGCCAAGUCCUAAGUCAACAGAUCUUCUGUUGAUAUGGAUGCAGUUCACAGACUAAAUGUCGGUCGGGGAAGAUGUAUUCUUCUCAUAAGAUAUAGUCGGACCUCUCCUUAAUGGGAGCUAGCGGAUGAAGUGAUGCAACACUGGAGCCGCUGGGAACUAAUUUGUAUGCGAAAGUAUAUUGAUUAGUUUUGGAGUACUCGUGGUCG; settings: 30 °C;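 note: selection with 25 µg/mL kanamycin versus none on LB agar overnight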
List of self-splicing fitness (ln) values.
When you answer, write just the number.

UAGCAGCAAUAUUACGAUGA	-0.884
CAUCAGCAAUAUUACGCUCU	-3.31

Entry UCCUAGCAAUAUUACGUGUU : reported self-splicing fitness (ln) = ?
-3.7

Entry CGAUAGCAAUAUUACGAAAC : reported self-splicing fitness (ln) = ?
-1.44

Entry AUCCAGCAAUAUUACGACGU : reported self-splicing fitness (ln) = ?
-0.176

Entry GACAAGCAAUAUUACGGCUA : reported self-splicing fitness (ln) = ?
-0.175

Entry AAGAAGCAAUAUUACGGCUC : reported self-splicing fitness (ln) = ?
-1.19
